target: CD28 (human) (UniProt P10747); assay: flow cytometry, Jurkat cells (CD28)
I'd be grateful if you could share measured Fold change to WT for these entries.
Report the value in fold with no unit label.

Task: Please indicate Fold change to WT recorded for CD80 variant Q33L/E35D/M47V/L85Q IgV-Fc (Fc fusion) VIHVTKEVKEVATLSCGHNVSVEELAQTRIYWLKDKKMVLTMMSGDVNIWPEYKNRTIFDITNNLSIVILALRPSDEGTYECVVQKYEKDAFKREHLAEVT
Output: 0.04

Task: Please indicate Fold change to WT recorded for CD80 variant Q33L/E35D/M43V/M47I/A71G IgV-Fc (Fc fusion) VIHVTKEVKEVATLSCGHNVSVEELAQTRIYWLKDKKMVLTMVSGDINIWPEYKNRTIFDITNNLSIVILGLRPSDEGTYECVVLKYEKDAFKREHLAEVT
Output: 0.04

Task: Please indicate Fold change to WT recorded for CD80 variant Q33L/E35D/M47L/A71G/F92S IgV-Fc (Fc fusion) VIHVTKEVKEVATLSCGHNVSVEELAQTRIYWLKDKKMVLTMMSGDLNIWPEYKNRTIFDITNNLSIVILGLRPSDEGTYECVVLKYEKDASKREHLAEVT
Output: 0.05

Task: Please indicate Fold change to WT recorded for CD80 variant Q33L/E35D/N48K/L85Q/L97Q IgV-Fc (Fc fusion) VIHVTKEVKEVATLSCGHNVSVEELAQTRIYWLKDKKMVLTMMSGDMKIWPEYKNRTIFDITNNLSIVILALRPSDEGTYECVVQKYEKDAFKREHQAEVT
Output: 0.04

Task: Please indicate Fold change to WT recorded for CD80 variant Q33L/E35D/M47I/T62N/L85Q IgV-Fc (Fc fusion) VIHVTKEVKEVATLSCGHNVSVEELAQTRIYWLKDKKMVLTMMSGDINIWPEYKNRTIFDINNNLSIVILALRPSDEGTYECVVQKYEKDAFKREHLAEVT
Output: 0.04
